Field: Urea nitrogen. Provide a value for each of the compounds that follow.
Test system: kidney disease model rats
Assay: Renal function indicatory value (action to kidney diseases)
Assay type: in vivo, Sprague-Dawley female rats
Conditions: serum, 20 mg/kg/day per os, two weeks; control 100
One number for each entry, in mg/dL.

INSERT INTO assay_data (compound, unitslabel, measurednumber) VALUES
  ('CCCCCN(C)c1ccc(S(=O)(=O)N2CCOCC2)cc1NCc1ccc(-c2ccccc2-c2nn[nH]n2)cc1', 'mg/dL', 73),
  ('CCCCCN(C)c1c(NCc2ccc(-c3ccccc3-c3nn[nH]n3)cc2)cc(C(=O)N2CCOCC2)cc1NC(=O)C(c1ccccc1)c1ccccc1', 'mg/dL', 80),
  ('CCCCCN(C)c1c(NCc2ccc(C(=O)O)cc2)cc(S(=O)(=O)N2CCOCC2)cc1NC(=O)C(c1ccccc1)c1ccccc1', 'mg/dL', 80),
  ('CCCCC(=O)N(Cc1ccc(C(=O)O)cc1)c1cc(C(=O)N2CCOCC2)ccc1C(C)C', 'mg/dL', 72),
  ('CCCCC(=O)N(Cc1ccc(C(=O)O)cc1)c1cccc(C(=O)N2CCOCC2)c1', 'mg/dL', 70);

Give measured Urea nitrogen for every item shown.
1. CCCCc1nc(Cl)c(CO)n1Cc1ccc(-c2ccccc2-c2nnn[nH]2)cc1 [DuP753, reference compound]
2. CCCCC(=O)N(Cc1ccc(C(=O)O)cc1)c1cc(C(=O)N2CCOCC2)ccc1C
3. CCCCC(=O)N(Cc1ccc(-c2ccccc2-c2nn[nH]n2)cc1)c1cc(C(=O)N2CCOCC2)ccc1NC(C)=O

1. 80
2. 73
3. 76

This collection of values is drawn from patent US5739131A.
